# tested_on: MDM2 (Homo sapiens, UniProt Q00987)
# Sequence (Q00987 1-125): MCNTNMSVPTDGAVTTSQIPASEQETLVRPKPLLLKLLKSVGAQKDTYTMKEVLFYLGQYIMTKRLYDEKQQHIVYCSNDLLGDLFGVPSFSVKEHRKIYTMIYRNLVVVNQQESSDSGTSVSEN
# assay_comment: Competitive fluorescence polarization assay for MDM2
# Assay type: binding
# condition_summary: competitive FP assay, MDM2; read-out: Ki (MDM2)
pKi: −log10 of the molar value. Where a SMILES comes first, the peptide text is derived from it. Bridges are numbered along the chain shown (N, C = ends). [ ]: non-standard residue; d: D form. R8 = C=CCCCCCC[C@@](C)(N)C(=O)O; Cba = N[C@@H](CC1CCC1)C(=O)O; S5 = C=CCCC[C@](C)(N)C(=O)O; Nle = CCCC[C@H](N)C(=O)O
measurement_type: pKi

Sample records with pKi:
CCCC[C@H](NC(=O)[C@H](C)NC(=O)[C@H](CO)NC(=O)[C@]1(C)CCCC=CCCCCCC[C@@](C)(NC(=O)[C@H](Cc2ccccc2)NC(=O)[C@@H](NC(=O)[C@H](CC(C)C)NC(C)=O)[C@@H](C)O)C(=O)N[C@@H](C)C(=O)N[C@@H](Cc2ccc(O)cc2)C(=O)N[C@@H](Cc2c[nH]c3ccccc23)C(=O)N[C@@H](C)C(=O)N[C@@H](CCC(N)=O)C(=O)N[C@@H](CC(C)C)C(=O)N1)C(N)=O [compound 3] (Ac-LTF[R8]AYWAQL[S5]SA[Nle]-NH2; staple 4-11) :: 7.00 to 8.00
CC(=O)N[C@@H](CCC(=O)O)C(=O)N[C@H](C(=O)N[C@@H](Cc1ccccc1)C(=O)N[C@]1(C)CCCCCCC=CCCC[C@@](C)(C(=O)N[C@@H](CO)C(=O)N[C@@H](CC(N)=O)C(=O)N[C@H](C)C(N)=O)NC(=O)[C@H](CC(C)C)NC(=O)[C@H](CCC(N)=O)NC(=O)[C@H](C)NC(=O)[C@H](Cc2c[nH]c3ccccc23)NC(=O)[C@H](Cc2ccc(O)cc2)NC(=O)[C@H](C(C)C)NC1=O)[C@@H](C)O [compound 136] (Ac-ETF[R8]VYWAQL[S5]SN[dA]-NH2; staple 4-11) :: > 8.00
CC[C@H](C)[C@H](NC(=O)[C@H](C)NC(=O)[C@H](C)NC(=O)[C@]1(C)CCCC=CCCCCCC[C@@](C)(NC(=O)[C@H](Cc2ccccc2)NC(=O)[C@@H](NC(=O)[C@H](CC(C)C)NC(C)=O)[C@@H](C)O)C(=O)N[C@@H](CCC(=O)O)C(=O)N[C@@H](Cc2ccc(C(=O)O)cc2)C(=O)N[C@@H](Cc2c[nH]c3cc(Cl)ccc23)C(=O)N[C@@H](C)C(=O)N[C@@H](CCC(N)=O)C(=O)N[C@@H](CC2CCC2)C(=O)N1)C(=O)N[C@H](C)C(N)=O (single isomer, unassigned) :: > 8.00
CCCC[C@H](NC(=O)[C@H](C)NC(=O)[C@H](C)NC(=O)[C@]1(C)CCCC=CCCCCCC[C@@](C)(NC(=O)[C@H](Cc2ccccc2)NC(=O)[C@@H](NC(=O)[C@H](CC(C)C)NC(C)=O)[C@@H](C)O)C(=O)N[C@@H](CCC(=O)O)C(=O)N[C@@H](Cc2ccc(O)cc2)C(=O)N[C@@H](Cc2c[nH]c3ccccc23)C(=O)N[C@@H](C)C(=O)N[C@@H](CCC(N)=O)C(=O)N[C@@H](CC2CCC2)C(=O)N1)C(=O)N[C@@H](C)C(=O)N[C@@H](C)C(N)=O [compound 380] (Ac-LTF[R8]EYWAQ[Cba][S5]AA[Nle]AA-NH2; staple 4-11) :: > 8.00

Form: compound = CC[C@H](C)[C@H](NC(C)=O)C(=O)N[C@H](C(=O)N[C@@H](Cc1ccccc1)C(=O)N[C@]1(C)CCCCCCC=CCCC[C@@](C)(C(=O)N[C@@H](C)C(=O)N[C@@H](Cc2c[nH]cn2)C(=O)N[C@@H](Cc2ccccc2)C(=O)N[C@@H](C)C(N)=O)NC(=O)[C@H](CC(C)C)NC(=O)[C@H](CCC(N)=O)NC(=O)[C@H](C)NC(=O)[C@H](Cc2c[nH]c3ccccc23)NC(=O)[C@H](Cc2ccc(O)cc2)NC(=O)[C@H](Cc2ccccc2)NC1=O)[C@@H](C)O (single isomer, unassigned) ; pKi = > 8.00

Form: compound = CC(=O)N[C@@H](CC(C)C)C(=O)N[C@H](C(=O)N[C@@H](Cc1ccccc1)C(=O)N[C@]1(C)CCCCCCC=CCCC[C@@](C)(C(=O)N[C@@H](C)C(=O)N[C@@H](C)C(=O)N[C@@H](C)C(=O)N[C@@H](C)C(=O)N[C@@H](C)C(=O)N[C@H](C)C(N)=O)NC(=O)[C@H](CC(C)C)NC(=O)[C@H](CC(N)=O)NC(=O)[C@H](C)NC(=O)[C@H](Cc2c[nH]c3ccccc23)NC(=O)[C@H](Cc2ccc(O)cc2)NC(=O)[C@H](CCC(=O)O)NC1=O)[C@@H](C)O [compound 611] (Ac-LTF[R8]EYWANL[S5]AAAAA[dA]-NH2; staple 4-11) ; pKi = > 8.00

The measurements presented in this section are drawn from patent US8927500B2.
